- experimental_details: Quantitative High-Throughput drug screen in 47 multiple myeloma cell lines against the NCATS MIPE library collection: NCIH929_DSMZ cell viability assay (AID 1918978); also: nearly all actives have a fitted effect of over 35% in size
- assay_conditions: NCI-H929 myeloma viability, CellTiter-Glo ATP, 48 h; series mostly up to 45.8 µM
Results filed as inconclusive are left out. Active and inactive are the calls of the source. Calls follow the shape of the dose curve; as a rule, active = well fitted cell-killing curve with a large enough effect; inconclusive = small, poorly fitted or top-dose-only effect; inactive = no such curve, though single readings can be large or run the other way.
Allowed answers: active, inactive

1) O=c1[nH]c2ccccc2n1C1CCN(Cc2ccc(-c3[nH]c4cc5ncnc5cc4nc3-c3ccccc3)cc2)CC1    active
2) c1ccc2c(CN3CCNCC3)cccc2c1    inactive
3) CC1=C(O)C(=O)C=C2C1=CC=C1[C@@]2(C)CC[C@@]2(C)[C@@H]3C[C@](C)(C(=O)O)CC[C@]3(C)CC[C@]12C    active
4) C[C@]12Cc3cn[nH]c3C[C@@H]1CC[C@@H]1[C@H]2CC[C@@]2(C)[C@H]1CC[C@]2(C)O    inactive
5) Cc1[nH]nc2ccc(-c3cncc(OC[C@@H](N)Cc4c[nH]c5ccccc45)c3)cc12    active

Field: outcome | Entry: CC1(N2CCC(n3c([C@@H]4CCCNC4)nc4ccccc43)CC2)CCCCCCC1
active

Entry to check: c1ccc(CCCN2CCN(CCOC(c3ccccc3)c3ccccc3)CC2)cc1
active

Okay, and CCNC(=O)CC1N=C(c2ccc(Cl)cc2)c2cc(OC)ccc2-n2c(C)nnc21 (centres undefined) ?
active

Please give the result for O=C(O)CNC(=O)c1c(O)c2ccccc2n(Cc2ccccc2)c1=O too.
inactive
